Entry source: patent US11384078B2

Tested on: Trypanosoma cruzi amastigotes cultured in 3T3 fibroblast cells
Assay: Assay for growth inhibition of kinetoplastid parasite Trypanosoma cruzi (beta-galactosidase Tulahuen strain, CPRG readout)
Type: cell-based
Conditions: Trypanosoma cruzi, Fibroblast, T. cruzi amastigotes in 3T3 fibroblast cells; read-out: Buckner infectious T. cruzi EC50
Reported endpoint: pEC50
Note on pEC50: it is the negative log10 of concentration, concentration in mol/L.

As a guide, the following entries are already answered.
CC(C)c1cnc2nn(-c3cc(NC(=O)C4(C)CCCO4)ccc3F)cc2c1 (stereo not shown) [Compound 77] :: 5.19
[2H]C([2H])([2H])N(c1cnc2nn(-c3cc(NC(=O)N4CCC4)ccc3F)cc2c1)C([2H])([2H])[2H] [Compound 306] :: 8.70
O=C(Nc1ccc(F)c(-n2cc3cc(N4CC5(CCOC5)C4)cnc3n2)c1)N1CC(F)C1 [Compound 202] :: 7.60
O=C(Nc1ccc(F)c(-n2cc3cc(N4CCOCC4)cnc3n2)c1)N1CCC1 [Compound 137] :: 8.29

Recorded pEC50 for O=C(Nc1ccc(F)c(-n2cc3cc(N4CCC4)cnc3n2)c1)N1CC[C@@H](F)C1 [Compound 149] , please?
8.27

Recorded pEC50 for Cc1nc(C(F)(F)F)oc1C(=O)Nc1ccc(F)c(-n2cc3cc(C(C)C)cnc3n2)c1 [Compound 78] , please?
6.35

Recorded pEC50 for O=C(Nc1ccc(F)c(-n2cc3cc(-c4ccccn4)cnc3n2)c1)c1ccco1 [Compound 64] , please?
9.00

Recorded pEC50 for O=C(Nc1ccc(F)c(-n2cc3cc(-c4c[nH]cn4)cnc3n2)c1)N1CC(F)C1 [Compound 295] , please?
5.37

Recorded pEC50 for O=C(Nc1ccc(F)c(-n2cc3cc(N4CC5(CC5)C4)cnc3n2)c1)[C@H]1C[C@@H]1F (racemic) [Compound 272] , please?
6.94

Recorded pEC50 for O=C(Nc1ccnc(-n2cc3cc(-c4ccccn4)cnc3n2)c1)N1CCC1 [Compound 341] , please?
8.00

Recorded pEC50 for O=C(Nc1ccc(F)c(-n2cc3cc(-c4ccccn4)cnc3n2)c1)N1CC[C@@H](F)C1 [Compound 53] , please?
9.00

Recorded pEC50 for [2H]C([2H])([2H])N(C(=O)Nc1ccc(F)c(-n2cc3cc(C(C)C)cnc3n2)c1)C([2H])([2H])[2H] [Compound 219] , please?
7.82

Recorded pEC50 for Cc1cccnc1-c1cnc2nn(-c3cc(NC(=O)N4CCC4)ccc3F)cc2c1 [Compound 3] , please?
8.80

Recorded pEC50 for O=C(Nc1cccc(-n2cc3cc(N4CC(F)(F)C4)cnc3n2)c1)N1CCC1 [Compound 343] , please?
7.85

Recorded pEC50 for O=C(Nc1ccc(F)c(-n2cc3cc(N4CCn5ccnc5C4)cnc3n2)c1)N1CC(F)C1 [Compound 180] , please?
5.41

Recorded pEC50 for O=C(Nc1ccc(F)c(-n2cc3cc(N4CCC(F)(F)C4)cnc3n2)c1)N1CC(F)C1 [Compound 262] , please?
8.40
